- Test target: RARγ (Homo sapiens)
- Construct: % Efficiency γ; other: percentage of maximum compared to standard TTNPB
- Sequence (P13631 185-454 limits assumed): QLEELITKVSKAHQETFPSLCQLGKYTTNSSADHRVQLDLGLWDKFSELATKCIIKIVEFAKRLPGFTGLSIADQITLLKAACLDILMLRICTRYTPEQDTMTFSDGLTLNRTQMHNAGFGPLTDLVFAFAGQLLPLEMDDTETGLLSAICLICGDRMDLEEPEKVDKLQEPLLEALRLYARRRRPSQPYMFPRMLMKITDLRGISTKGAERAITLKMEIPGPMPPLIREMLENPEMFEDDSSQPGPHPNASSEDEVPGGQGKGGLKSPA
- Method notes: chimeric receptor transactivation assay, RARγ
- Format: cell-based
- Condition description: percentage of maximum compared to standard TTNPB
Label condition met when % Efficiency γ is at or above 90%; anything below gets condition not met.

Compound	Assigned label
Cc1cc2c(cc1C(C=Cc1ccc(C(=O)O)cc1)=NO)C(C)(C)CCC2(C)C [drawing 36]	condition not met
COc1cc2c(cc1C(/C=C/c1ccc(C(=O)O)cc1)=N/O)C(C)(C)CCC2(C)C	condition met
CC1(C)CC(C)(C)c2cc(C(/C=C/c3ccc(C(=O)O)cc3F)=N\O)ccc21	condition not met
CC1(C)CCC(C)(C)c2cc(C(C=Cc3ccc(C(=O)O)cc3)=NO)ccc21 [drawing 9]	condition met
CC1(C)CCC(C)(C)c2cc(C(C=Cc3ccc(C(=O)O)cc3F)=NO)ccc21 [drawing 11]	condition not met
CC1(C)CC(C)(C)c2cc(C(C=Cc3ccc(C(=O)O)cc3)=NO)ccc2O1 [drawing 25]	condition met
CC1(C)CCC(C)(C)c2nc(C(C=Cc3ccc(C(=O)O)cc3)=NO)cnc21 [drawing 35]	condition met
CC1(C)CC(C)(C)c2cc(C(C=Cc3ccc(C(=O)O)cc3F)=NO)ccc21	condition not met
CC1(C)CCCc2cc(C(C=Cc3ccc(C(=O)O)cc3)=NO)ccc21 [drawing 17]	condition not met
CC1(C)CCC(C)(C)c2cc(C(C=Cc3ccc(C(=O)O)cc3)=NO)ccc21 [drawing 8]	condition met
Cc1cc2c(cc1C(C=Cc1ccc(C(=O)O)cc1)=NO)C(C)(C)CCC2(C)C [drawing 37]	condition not met
CC1(C)CCSc2ccc(C(/C=C/c3ccc(C(=O)O)cc3F)=N\O)cc21	condition met
CC1(C)CCCc2ccc(C(C=Cc3ccc(C(=O)O)cc3)=NO)cc21 [drawing 14]	condition met

====

- Test target: RARβ (Homo sapiens)
- Sequence (P10826 183-455 limits assumed): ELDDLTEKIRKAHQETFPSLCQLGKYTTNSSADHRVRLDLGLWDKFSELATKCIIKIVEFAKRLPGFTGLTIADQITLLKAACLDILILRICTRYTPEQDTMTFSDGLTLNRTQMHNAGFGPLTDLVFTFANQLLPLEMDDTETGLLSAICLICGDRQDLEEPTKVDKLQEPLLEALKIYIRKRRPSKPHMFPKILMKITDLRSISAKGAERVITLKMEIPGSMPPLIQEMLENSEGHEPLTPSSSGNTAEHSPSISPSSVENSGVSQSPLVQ
- Method notes: chimeric receptor transactivation assay, RARβ
- Condition description: chimeric receptor transactivation; read-out: RAR EC50 β

Compound	Value unit	EC50
CC1(C)CCC(C)(C)c2nc(C(C=Cc3ccc(C(=O)O)cc3)=NO)cnc21 [drawing 34]	nM	105
CC1(C)CCC(C)(C)c2nc(C(C=Cc3ccc(C(=O)O)cc3)=NO)cnc21 [drawing 35]	nM	77
CC1=CCC(C)(C)c2cc(C(/C=C/c3ccc(C(=O)O)cc3F)=N/O)ccc21	nM	168
Cc1cc2c(cc1C(C=Cc1ccc(C(=O)O)cc1)=NO)C(C)(C)CCC2(C)C [drawing 36]	nM	3440
CC1(C)CCCc2ccc(C(/C=C/c3ccc(C(=O)O)cc3F)=N\O)cc21	nM	4060
CC1(C)CC(C)(C)c2cc(C(/C=C/c3ccc(C(=O)O)cc3F)=N\O)ccc21	nM	249
CC1(C)CCSc2ccc(C(/C=C/c3ccc(C(=O)O)cc3F)=N/O)cc21	nM	173
CC1(C)CCC(C)(C)c2cc(C(C=Cc3ccc(C(=O)O)cc3)=NO)ccc21 [drawing 9]	nM	34
CC1(C)CCSc2ccc(C(C=Cc3ccc(C(=O)O)cc3)=NO)cc21 [drawing 18]	nM	79
